target: Lethal factor (Bacillus anthracis) (UniProt P15917); assay: Lethal factor protease inhibitors, Bacillus anthracis, multiplex microsphere cleavage assay, validation set (AID 588461); settings: flow cytometry, at 10 µM, stronger effect = higher value
Sequence (P15917 whole entry, looked up): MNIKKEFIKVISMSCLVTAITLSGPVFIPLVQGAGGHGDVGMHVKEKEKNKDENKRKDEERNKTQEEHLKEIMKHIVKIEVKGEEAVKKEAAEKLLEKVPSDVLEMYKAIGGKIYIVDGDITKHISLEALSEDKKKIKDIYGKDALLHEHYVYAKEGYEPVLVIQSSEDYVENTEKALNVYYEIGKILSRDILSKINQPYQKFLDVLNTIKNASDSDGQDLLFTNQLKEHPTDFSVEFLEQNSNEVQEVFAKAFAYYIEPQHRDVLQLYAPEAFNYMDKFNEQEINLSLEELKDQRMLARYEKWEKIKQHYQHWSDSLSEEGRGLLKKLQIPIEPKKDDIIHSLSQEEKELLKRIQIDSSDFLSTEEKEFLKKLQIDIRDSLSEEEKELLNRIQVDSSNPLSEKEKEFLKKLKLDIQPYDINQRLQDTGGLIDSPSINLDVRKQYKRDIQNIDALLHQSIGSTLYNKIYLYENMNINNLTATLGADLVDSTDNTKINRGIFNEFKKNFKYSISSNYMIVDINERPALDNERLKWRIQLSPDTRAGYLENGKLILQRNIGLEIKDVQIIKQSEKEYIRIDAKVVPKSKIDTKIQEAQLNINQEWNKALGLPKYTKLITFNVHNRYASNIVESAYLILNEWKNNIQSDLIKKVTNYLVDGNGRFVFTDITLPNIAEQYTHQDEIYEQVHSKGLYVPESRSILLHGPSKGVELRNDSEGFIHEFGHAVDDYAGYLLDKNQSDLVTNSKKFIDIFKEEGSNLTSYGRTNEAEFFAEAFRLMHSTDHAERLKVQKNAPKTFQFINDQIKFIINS
Active and inactive are the calls of the source. The rule behind the calls is not given here.
ENDPOINT: inhibition

Observed inhibition on Lethal factor (Bacillus anthracis) (UniProt P15917) for COc1cccc(-n2cc(CNCc3c(C(=O)N(C)C)nc4ccc(Cl)cn34)cn2)c1 , please.
7.5% (inactive)

Observed inhibition on Lethal factor (Bacillus anthracis) (UniProt P15917) for C=C(C)C(=O)Nc1ccc(NC(C)C)cc1 , please.
5.7% (inactive)

Observed inhibition on Lethal factor (Bacillus anthracis) (UniProt P15917) for O=c1c2ccccc2nc(/C=C/c2ccc3c(c2)OCO3)n1-c1ccccc1 , please.
-5% (inactive)

Observed inhibition on Lethal factor (Bacillus anthracis) (UniProt P15917) for O=C(/C=C/c1ccc(Cl)cc1)NCCc1ccccc1 , please.
2.3% (inactive)

Observed inhibition on Lethal factor (Bacillus anthracis) (UniProt P15917) for Cc1nnc(SCC(=O)N2CCCC(C(=O)c3ccc(Cl)cc3)C2)o1 (stereo unspecified) , please.
-6.4% (inactive)

Observed inhibition on Lethal factor (Bacillus anthracis) (UniProt P15917) for Cc1ccc2nc(N=C(N)N)nc(C)c2c1 , please.
-12.1% (inactive)

###

biological target: Lethal factor (Bacillus anthracis) (UniProt P15917); test: Lethal factor protease inhibitors, Bacillus anthracis, multiplex microsphere cleavage assay, validation set (AID 588461); settings: flow cytometry, at 10 µM, stronger effect = higher value
Where a SMILES comes first, the peptide text is derived from it.
Kindly supply the reported inhibition values for the records listed here.
Field: numeric (%). Do not append units.

Entry under review: O=C(O)CCCCCCNC(=O)c1cncc(O)c1 . Reported inhibition?
7.5

Entry under review: CC(=O)c1cccc2c(O)c(C3=Nc4ccccc4C3=O)[nH]c12 . Reported inhibition?
6.7

Entry under review: Cc1nc2ccccc2n1CC(O)Cn1c2ccccc2c2ccccc21 (stereo not given) . Reported inhibition?
-0.7

Entry under review: CCc1c(C(C)=O)oc2ccc3c(C)cc(=O)oc3c12 . Reported inhibition?
-2.4

Entry under review: COC1CCCCC1Nc1ccc(C)c(C)c1 (stereo not given) . Reported inhibition?
-5.5

Entry under review: O=C(CC(C(=O)O)c1c[nH]c2ccccc12)c1ccccc1 (stereo not given) . Reported inhibition?
6.4

Entry under review: Cc1cc(=O)[nH]c(=S)[nH]1 . Reported inhibition?
-7.5

Entry under review: Cn1cc(CN(CCO)Cc2cccs2)c(-c2cccc(Cl)c2)n1 . Reported inhibition?
-1.3

Entry under review: COC1=CC(=O)OC(/C=C/c2ccccc2)C1 (stereo not given) . Reported inhibition?
5.6

Entry under review: c1ccc(Cn2ccnc2)cc1 . Reported inhibition?
-0.1

Entry under review: O=C(OCC(O)C(O)COC(=O)c1ccccc1)c1ccccc1 (stereo not given) . Reported inhibition?
2.1

Entry under review: Nc1ccn([C@@H]2O[C@H](CO)[C@@H](O)[C@@H]2O)c(=O)n1 . Reported inhibition?
-1.8

Entry under review: COC(=O)c1ccc(C(=O)OC)c(NC(=O)C(C)C)c1 . Reported inhibition?
-1.4

Entry under review: OC(CCN1CCCCC1)(c1ccccc1)c1ccccc1 . Reported inhibition?
-0.2

Entry under review: Cc1c(CCOC(=O)CC23CC4CC(CC(C)(C4)C2)C3)sc[n+]1Cc1ccc([N+](=O)[O-])cc1 . Reported inhibition?
-4.8

Entry under review: O=C(O)CCSCCC(=O)O . Reported inhibition?
-7.4

Entry under review: O=C(OCC1CCCN2CCCCC12)c1ccc2c(c1)OCO2 (stereo not given) . Reported inhibition?
-6.7

Entry under review: COc1ccc(CC(=O)Nc2cccc(C(=O)Nc3ccccc3C(=O)O)c2)cc1OC . Reported inhibition?
1.8

Entry under review: CC12CCC(C(=O)Nc3ccccc3Br)(C/C1=N\O)C2(C)C (stereo not given) . Reported inhibition?
-6.5

Entry under review: CN1CCCC(OC(=O)c2ccc3c(c2)OCCO3)C1 (stereo not given) . Reported inhibition?
-2.2

Entry under review: COc1cc2c(cc1OC)C(c1ccccc1)=NCC2 . Reported inhibition?
7

Entry under review: CCNC1=C(Cl)C(=O)c2ccccc2C1=O . Reported inhibition?
-6

Entry under review: C[C@]12CCC(=O)C=C1CC[C@@H]1[C@@H]2[C@@H](O)C[C@@]2(C)[C@H]1CC[C@]2(O)C(=O)CO . Reported inhibition?
-10.2

Entry under review: CNC(=O)Oc1ccc2c(c1)[C@]1(C)CCN(C)[C@@H]1N2C . Reported inhibition?
0.5

Entry under review: CCc1cc(=O)oc2cc(OCC=C(C)C)ccc12 . Reported inhibition?
0.2

Entry under review: C#CCN(C)C(C)Cc1ccccc1 (stereo not given) . Reported inhibition?
3.9

Entry under review: C[C@@H]1O[C@@H](O[C@H]2C[C@@H](O)[C@]3(CO)[C@H]4[C@H](O)C[C@]5(C)[C@@H](C6=CC(=O)OC6)CC[C@]5(O)[C@@H]4CC[C@]3(O)C2)[C@H](O)[C@H](O)[C@H]1O . Reported inhibition?
0.4

Entry under review: O=c1ccc2c(o1)/C(=C/C=C(Cl)Cl)CCC2 . Reported inhibition?
-2

Entry under review: CC(C)(CO)CNC(=O)CC1C(=O)NCCN1CC(c1ccccc1)c1ccccc1 (stereo not given) . Reported inhibition?
0.3

Entry under review: COc1ccc(OC)c(-n2c(Cn3c(-c4ccccn4)nc4ccccc43)n[nH]c2=S)c1 . Reported inhibition?
-0.7

Entry under review: CC(C)CC(=O)N(Cc1ccc(F)cc1)C1CCS(=O)(=O)C1 (stereo not given) . Reported inhibition?
-4

Entry under review: CC(C)=CCC/C(C)=C/CC/C(C)=C/CC/C(C)=C/CC1=C(C)C(=O)c2ccccc2C1=O . Reported inhibition?
-3

Entry under review: COc1ccc(C2c3c(n[nH]c3C)CC(C)(O)C2C(C)=O)cc1OC (stereo not given) . Reported inhibition?
-2.7

Entry under review: CC(C)CN1CCN(Cc2ccc(C#CC(C)(C)O)cc2)CC1CCO (stereo not given) . Reported inhibition?
-2.1

Entry under review: c1ccc2c3c([nH]c2c1)CNCC3 . Reported inhibition?
-60.3

Entry under review: COC(=O)c1ccc(OCCCCN2CC(C)OC(C)C2)cc1 (stereo not given) . Reported inhibition?
4

Entry under review: CC(=O)NC(CC(C)C)C(=O)NC(Cc1ccccc1)C(N)=O (stereo not drawn) (Ac-Leu-Phe-NH2; configuration not given here) . Reported inhibition?
-1.4

Entry under review: CC12CN3CC(C)(CN(C1)C3c1ccc([N+](=O)[O-])o1)C2 (stereo not given) . Reported inhibition?
-5.6

Entry under review: CC12CCC(C(=O)NCc3ccccn3)(OC1=O)C2(C)C (stereo not given) . Reported inhibition?
3

Entry under review: COc1ccc(NC(=O)N2CCCCC2c2cccnc2)cc1 (stereo not given) . Reported inhibition?
-0.9

Entry under review: O=C(COc1ccc2ccc(=O)oc2c1)c1ccccc1 . Reported inhibition?
1

Entry under review: Cc1ccc2c(c1)C(C)(C)[C@]1(C)NC(=O)CCN21 . Reported inhibition?
0

Entry under review: Cn1c(SCC(=O)c2ccccc2)nnc1-c1ccncc1 . Reported inhibition?
3.4

Entry under review: C[C@H](O)[C@H]1CC[C@H]2[C@@H]3CCC4=CC(=O)CC[C@]4(C)[C@H]3CC[C@]12C . Reported inhibition?
2.8

Entry under review: Cc1cc(=O)oc2c(CN(C)Cc3ccccc3)c(O)ccc12 . Reported inhibition?
-3.4

###

Kindly supply the reported inhibition values for the records listed here.
biological target: Botulinum neurotoxin type A (Clostridium botulinum) (UniProt P0DPI0); experiment: BoNT/A light chain protease inhibitors, biochemical, multiplex microsphere flow cytometry, validation set (AID 588460); settings: at 10 µM, stronger effect = higher value
Sequence (P0DPI0 whole entry, looked up): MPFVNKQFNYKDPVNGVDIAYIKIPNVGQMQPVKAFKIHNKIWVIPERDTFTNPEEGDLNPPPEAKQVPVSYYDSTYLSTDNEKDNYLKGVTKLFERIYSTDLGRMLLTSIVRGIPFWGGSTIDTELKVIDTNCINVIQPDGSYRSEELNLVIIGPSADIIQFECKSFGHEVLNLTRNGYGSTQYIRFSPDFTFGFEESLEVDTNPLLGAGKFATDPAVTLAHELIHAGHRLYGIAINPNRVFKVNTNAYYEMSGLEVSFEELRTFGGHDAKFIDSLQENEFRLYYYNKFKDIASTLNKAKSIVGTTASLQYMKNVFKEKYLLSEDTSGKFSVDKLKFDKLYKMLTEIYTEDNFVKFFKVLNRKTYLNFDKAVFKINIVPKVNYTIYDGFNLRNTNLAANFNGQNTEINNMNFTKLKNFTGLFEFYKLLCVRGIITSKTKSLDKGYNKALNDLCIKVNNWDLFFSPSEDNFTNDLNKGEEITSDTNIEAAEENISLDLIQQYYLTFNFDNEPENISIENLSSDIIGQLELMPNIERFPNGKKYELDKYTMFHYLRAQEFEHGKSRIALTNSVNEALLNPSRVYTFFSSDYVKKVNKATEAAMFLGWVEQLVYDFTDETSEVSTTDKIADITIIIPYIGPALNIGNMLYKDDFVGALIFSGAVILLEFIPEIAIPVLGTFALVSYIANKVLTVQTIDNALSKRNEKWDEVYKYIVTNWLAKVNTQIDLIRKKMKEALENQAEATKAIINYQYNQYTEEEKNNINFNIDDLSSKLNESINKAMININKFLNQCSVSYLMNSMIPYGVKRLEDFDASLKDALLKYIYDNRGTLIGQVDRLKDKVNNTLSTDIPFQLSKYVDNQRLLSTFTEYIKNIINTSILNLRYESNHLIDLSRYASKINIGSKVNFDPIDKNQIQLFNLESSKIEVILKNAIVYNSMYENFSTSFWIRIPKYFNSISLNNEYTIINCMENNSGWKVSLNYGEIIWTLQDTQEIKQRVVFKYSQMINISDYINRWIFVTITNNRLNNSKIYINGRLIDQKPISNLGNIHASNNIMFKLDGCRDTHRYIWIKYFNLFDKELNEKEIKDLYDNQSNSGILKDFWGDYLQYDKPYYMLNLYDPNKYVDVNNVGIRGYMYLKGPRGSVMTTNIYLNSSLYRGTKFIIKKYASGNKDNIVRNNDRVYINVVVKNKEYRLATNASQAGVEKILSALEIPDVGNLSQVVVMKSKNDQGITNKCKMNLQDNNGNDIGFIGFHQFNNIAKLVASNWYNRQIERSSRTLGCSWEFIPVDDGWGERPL
Field: numeric (%). Do not append units.

Entry under review: C/C(=N\NC(=O)C1(C)CC1(Br)Br)c1ccc([N+](=O)[O-])cc1 (stereo not drawn) . Reported inhibition?
0.4

Entry under review: COc1ccc2c(CCNC(=O)c3ccc([N+](=O)[O-])cc3)c[nH]c2c1 . Reported inhibition?
-0.5

Entry under review: COc1cc2c(cc1O)CC[C@@H]1[C@@H]2CC[C@]2(C)[C@@H](O)CC[C@@H]12 . Reported inhibition?
-2.2

Entry under review: O=C(NC(=S)N1CCCCC1)c1cccnc1 . Reported inhibition?
1

Entry under review: CC(C)c1ccc(NC(=O)CNS(=O)(=O)c2ccc(F)cc2)cc1 . Reported inhibition?
-0.9

Entry under review: Cc1ccsc1C(=O)C1CCCN(Cc2cc3ccccc3o2)C1 (stereo not drawn) . Reported inhibition?
-0.7

Entry under review: CC(Cc1ccccc1)NCC(=O)Nc1cc(N(C)C)nc2ccccc12 (stereo not drawn) . Reported inhibition?
6.4

Entry under review: O=C(O)c1cnccn1 . Reported inhibition?
-1.6

Entry under review: Nc1ccc([As](=O)(O)O)cc1 . Reported inhibition?
-1.7

Entry under review: Cc1c2ccncc2c(C)c2c1[nH]c1ccccc12 . Reported inhibition?
2.8

Entry under review: Cn1c(O)c(C=NCCc2c[nH]c3ccccc23)c(=O)n(C)c1=O . Reported inhibition?
1.4

Entry under review: CC1(C)S[C@@H]2[C@H](NC(=O)C(C(=O)O)c3ccccc3)C(=O)N2[C@H]1C(=O)O (stereo partly drawn) . Reported inhibition?
1.2

Entry under review: Cc1ccc(CN2CCN(CCCc3ccccc3)CC2CCO)cc1 (stereo not drawn) . Reported inhibition?
-0.2

Entry under review: C[C@]12CCC(=O)C=C1CC[C@@H]1[C@@H]2C(=O)C[C@]2(C)C(=O)CC[C@@H]12 . Reported inhibition?
1

Entry under review: O=c1c(C(c2ccccc2)c2c(O)sc3ccccc3c2=O)c(O)sc2ccccc12 . Reported inhibition?
1.7

Entry under review: COc1ccc(C(C)N2CC34C=CC(O3)C(C(=O)OCC(C)C)C4C2=O)cc1 (stereo not drawn) . Reported inhibition?
-1.2

Entry under review: O=C(CC1SC(=O)NC1=O)Nc1ccc(Cl)cc1 (stereo not drawn) . Reported inhibition?
0.8

Entry under review: CCOc1ccccc1C(=O)NCCC(=O)O . Reported inhibition?
1.9

Entry under review: CN(C)CCC(c1ccc(Cl)cc1)c1ccccn1 (stereo not drawn) . Reported inhibition?
-0.2

Entry under review: O=C(Nc1cccc(C(=O)O)c1)/C(=C\c1ccccc1)NC(=O)c1ccccc1 . Reported inhibition?
0.3

Entry under review: CCCN(CCC)S(=O)(=O)c1ccc(C(=O)O)cc1 . Reported inhibition?
1.1

Entry under review: COc1ccc(CCN(C)CC(=O)Nc2cc(C)nc3ccccc23)cc1OC . Reported inhibition?
0.9

Entry under review: CC(C)=CCCC(C)CN1CCC(N2CCC(C(=O)N3CCCC3)CC2)CC1 (stereo not drawn) . Reported inhibition?
-0.4

Where do the numbers come from? From PubChem BioAssay.
